assay_system: L. monocytogenes AgrC (Listeria monocytogenes (EGD-e))
assay_explanation: cell-based or functional assay
Bridges are numbered along the chain shown (N, C = ends). Where no end group is shown, it is not given here. [ ]: non-standard residue; d: D form.
// values below are reported Max Activation Observed (agr-GFP reporter, ΔagrD strain)

Some solved entries appear below for comparison.
                                     binder  reported_value
0  KA[dC]FMFV (bridge 3-C; also: thiolactone: dCys3 side chain to C-terminal carboxyl) [7-mer C3dC]           7.08%
1  KKCFMFV (bridge 3-C; also: thiolactone: Cys3 side chain to C-terminal carboxyl) [7-mer A2K]           64.8%
2  KA[dC]F[dM]FV (bridge 3-C; also: thiolactone: dCys3 side chain to C-terminal carboxyl) [7-mer C3dC/M5dM]           7.89%

// next item, Max Activation Observed (agr-GFP reporter, ΔagrD strain) requested
So for KACF[dM]FV (bridge 3-C; also: thiolactone: Cys3 side chain to C-terminal carboxyl) [7-mer M5dM] , the logged Max Activation Observed (agr-GFP reporter, ΔagrD strain) turned out to be 71.9%
